FYI, the data here is from patent US20170240556A1.

Test system: ASPC1 (pancreas)
Experiment: Proliferation Assay
Format: cell-based
Details: Homo sapiens, 72 h, read-out: IC50 inhibition of cell growth
pIC50: −log10 of the molar value.

Smiles Entry | pIC50
COc1cccc(C(=O)Nc2nc3cc4c(cc3[nH]2)OC(F)(F)O4)c1 | ≥ 6.00

====

Tested on: DU145 (prostate)
Assay: Proliferation Assay
Assay type: cell-based
Conditions: Homo sapiens, DU-145, 72 h, read-out: IC50 inhibition of cell growth
pIC50: −log10 of the molar value.

Smiles Entry | pIC50
COc1cccc(C(=O)Nc2nc3cc4c(cc3[nH]2)OC(F)(F)O4)c1 | ≥ 6.00

====

Biological target: Casein kinase 1 epsilon (CSKN1E) (Homo sapiens)
Sequence (P49674 whole entry): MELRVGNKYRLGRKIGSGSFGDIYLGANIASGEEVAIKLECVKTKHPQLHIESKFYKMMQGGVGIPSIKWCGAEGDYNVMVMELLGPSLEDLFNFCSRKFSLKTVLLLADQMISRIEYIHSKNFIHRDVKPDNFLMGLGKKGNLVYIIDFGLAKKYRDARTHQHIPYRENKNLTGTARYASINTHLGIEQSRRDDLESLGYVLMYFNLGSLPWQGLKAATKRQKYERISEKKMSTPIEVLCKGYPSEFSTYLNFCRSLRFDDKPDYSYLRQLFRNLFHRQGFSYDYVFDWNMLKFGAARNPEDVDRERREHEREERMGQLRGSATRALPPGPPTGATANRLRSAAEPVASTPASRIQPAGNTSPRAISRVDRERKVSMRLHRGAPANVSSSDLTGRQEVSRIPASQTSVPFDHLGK
Experiment: Casein kinase assay, CK1 epsilon
Format: biochemical
Conditions: recombinant CSKN1E 30 nM, ATP 10 μM

Compound | IC50
O=C(Nc1nc2cc3c(cc2[nH]1)OC(F)(F)O3)c1csc2ccccc12 [Compound 31] | 200 to 1000 nM
Nc1nccnc1C(=O)Nc1nc2cc3c(cc2[nH]1)OC(F)(F)O3 [Compound 7] | > 1000 nM
Cn1cccc1C(=O)Nc1nc2cc3c(cc2[nH]1)OC(F)(F)O3 [Compound 20B] | > 1000 nM
O=C(O)c1cccc(C(=O)Nc2nc3cc4c(cc3[nH]2)OC(F)(F)O4)c1 [Compound 18B] | 200 to 1000 nM
O=C(Nc1nc2cc3c(cc2[nH]1)OC(F)(F)O3)c1csc(-c2ccc3c(c2)OCO3)n1 [Compound 39] | 200 to 1000 nM
COc1cc(Nc2ncc(C(=O)Nc3nc4cc5c(cc4[nH]3)OC(F)(F)O5)s2)nc(OC)n1 [Compound 99] | > 1000 nM
COc1ccc2cc([C@H](C)C(=O)Nc3nc4cc5c(cc4[nH]3)OC(F)(F)O5)ccc2c1 [Compound 133] | < 200 nM
Cc1cc(C(F)(F)F)nc(Nc2nc(C(=O)Nc3nc4cc5c(cc4[nH]3)OC(F)(F)O5)cs2)n1 [Compound 25] | > 1000 nM
O=C(Nc1nc2cc3c(cc2[nH]1)OC(F)(F)O3)c1cccc(-c2ncc[nH]2)c1 [Compound 140] | < 200 nM
O=C(Nc1nc2cc3c(cc2[nH]1)OC(F)(F)O3)c1cccc(Cl)c1 [Compound 41] | < 200 nM
O=C(Nc1nc2cc3c(cc2[nH]1)OC(F)(F)O3)c1nc(NC(=O)c2ccc(Cl)cc2Cl)n[nH]1 [Compound 51] | 200 to 1000 nM
O=C(Nc1nc2cc3c(cc2[nH]1)OC(F)(F)O3)c1ccsc1 [Compound 20] | 200 to 1000 nM
Cc1nnsc1C(=O)Nc1nc2cc3c(cc2[nH]1)OC(F)(F)O3 [Compound 42] | > 1000 nM
O=C(Nc1nc2cc3c(cc2[nH]1)OC(F)(F)O3)c1cccs1 [Compound 45] | 200 to 1000 nM
Cc1cc(-c2nc(C(=O)Nc3nc4cc5c(cc4[nH]3)OC(F)(F)O5)cs2)no1 [Compound 141] | < 200 nM
O=C(Nc1nc2cc3c(cc2[nH]1)OC(F)(F)O3)c1ccoc1 [Compound 32] | < 200 nM
Cc1ccc(C(=O)Nc2nc(C(=O)Nc3nc4cc5c(cc4[nH]3)OC(F)(F)O5)ns2)cc1 [Compound 89] | 200 to 1000 nM
O=C(Nc1nc2cc3c(cc2[nH]1)OC(F)(F)O3)c1nc(NC(=O)c2ccccc2OC(F)(F)F)n[nH]1 [Compound 52] | 200 to 1000 nM
O=C(Nc1nc2cc3c(cc2[nH]1)OC(F)(F)O3)c1csc(-c2ccccc2)n1 [Compound 4] | 200 to 1000 nM
COc1cc(OC)cc(C(=O)Nc2nc3cc4c(cc3[nH]2)OC(F)(F)O4)c1 [Compound 1B] | < 200 nM
O=C(Nc1nc2cc3c(cc2[nH]1)OC(F)(F)O3)c1csc([N+](=O)[O-])c1 [Compound 30] | < 200 nM
O=C(Nc1nc(C(=O)Nc2nc3cc4c(cc3[nH]2)OC(F)(F)O4)cs1)c1ccc(Cl)cc1 [Compound 8] | 200 to 1000 nM
NS(=O)(=O)c1cc(C(=O)Nc2nc3cc4c(cc3[nH]2)OC(F)(F)O4)cs1 [Compound 83] | < 200 nM
O=C(Nc1nc2cc3c(cc2[nH]1)OC(F)(F)O3)c1ncn[nH]1 [Compound 84] | > 1000 nM
O=C(Nc1nc2cc3c(cc2[nH]1)OC(F)(F)O3)c1coc(-c2cccs2)n1 [Compound 136] | 200 to 1000 nM
O=C(Nc1nc2cc3c(cc2[nH]1)OC(F)(F)O3)c1cc(-c2cccs2)on1 [Compound 138] | < 200 nM
O=C(Nc1nc(C(=O)Nc2nc3cc4c(cc3[nH]2)OC(F)(F)O4)ns1)c1cccc(Cl)c1 [Compound 57] | < 200 nM
Nc1c[nH]c(C(=O)Nc2nc3cc4c(cc3[nH]2)OC(F)(F)O4)c1 [Compound 15B] | 200 to 1000 nM
COc1ccc(OC)c(S(=O)(=O)Nc2nc(C(=O)Nc3nc4cc5c(cc4[nH]3)OC(F)(F)O5)cs2)c1 [Compound 19] | < 200 nM
O=C(Nc1nc2cc3c(cc2[nH]1)OC(F)(F)O3)c1cccc(-c2noc(C3CC3)n2)c1 [Compound 147] | < 200 nM
O=C(Nc1nc2cc3c(cc2[nH]1)OC(F)(F)O3)c1csc(N2CCOCC2)n1 [Compound 37] | 200 to 1000 nM
COc1ccc(C(=O)Nc2nc3cc4c(cc3[nH]2)OC(F)(F)O4)cc1 [Compound 46] | 200 to 1000 nM
O=C(Nc1n[nH]c(C(=O)Nc2nc3cc4c(cc3[nH]2)OC(F)(F)O4)n1)c1ccc(Cl)cc1 [Compound 129] | > 1000 nM

====

Form field: pIC50 (one value per entry).
Target: Casein kinase 1 delta (CSKN1D) (Homo sapiens)
Sequence (P48730 whole entry): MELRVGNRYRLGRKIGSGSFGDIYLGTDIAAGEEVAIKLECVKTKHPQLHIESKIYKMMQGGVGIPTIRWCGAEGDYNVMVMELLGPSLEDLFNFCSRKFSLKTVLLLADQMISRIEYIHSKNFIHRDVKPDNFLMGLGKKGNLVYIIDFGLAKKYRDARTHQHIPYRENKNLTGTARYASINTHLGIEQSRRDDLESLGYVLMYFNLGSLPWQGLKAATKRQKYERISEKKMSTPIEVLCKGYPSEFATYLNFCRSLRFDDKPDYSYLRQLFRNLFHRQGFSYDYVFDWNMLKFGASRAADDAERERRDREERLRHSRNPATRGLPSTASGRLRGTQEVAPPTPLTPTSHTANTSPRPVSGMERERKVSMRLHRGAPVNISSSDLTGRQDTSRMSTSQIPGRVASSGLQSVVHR
Assay: Casein kinase assay, CK1 delta
Details: recombinant CSKN1D 5 nM, ATP 10 μM
Method: The recombinant protein Casein kinase 1 delta (CSKN1D) was added to the substrate solution in a concentration of 5 nM and gently mixed. Dilution series in of compounds of the present invention in DMSO were added to the reaction mixture, followed after 20 min by addition of a mixture of ATP and ^33P-ATP (specific activity 0.01 μCi/μl final) to a final concentration of 10 μM. Reactions were carried out at 25° C. for 120 min, followed by spotting the reactions onto P81 ion exchange filter paper. […]
pIC50: −log10 of the molar value.

Smiles Entry | pIC50
Cc1ccccc1C(=O)Nc1nc2cc3c(cc2[nH]1)OC(F)(F)O3 | 6.00 to 6.70
COc1ccc(OC)c(S(=O)(=O)Nc2nc(C(=O)Nc3nc4cc5c(cc4[nH]3)OC(F)(F)O5)cs2)c1 | > 6.70
O=C(Nc1nc2cc3c(cc2[nH]1)OC(F)(F)O3)c1cccc(F)c1 | > 6.70
COc1cccc(C(=O)Nc2nc3cc4c(cc3[nH]2)OC(F)(F)O4)c1 | > 6.70

====

System: Hedgehog signaling pathway
Assay: Hedgehog reporter assay (Gli Reporter - NIH3T3 Cell Line)
Type: cell-based
Details: Mus musculus; Gli reporter NIH3T3 cells, murine SHH stimulation, 24 h; read-out: HH Assay
Form field: IC50 (one value per entry).
Reported Property: IC50

Compound | Value Reported
O=C(Nc1nc2cc3c(cc2[nH]1)OC(F)(F)O3)c1cc(-c2cccs2)on1 | 500 to 1000 nM
CN(C)c1cccc(C(=O)Nc2nc3cc4c(cc3[nH]2)OC(F)(F)O4)c1 | 500 to 1000 nM
O=C(Nc1nc2cc3c(cc2[nH]1)OC(F)(F)O3)c1cccc(-c2cc[nH]n2)c1 | 1000 to 15000 nM
Nc1nccnc1C(=O)Nc1nc2cc3c(cc2[nH]1)OC(F)(F)O3 | 1000 to 15000 nM
O=C(Nc1nc2cc3c(cc2[nH]1)OC(F)(F)O3)c1cnccn1 | 1000 to 15000 nM
COc1cccc(C(=O)Nc2nc3cc4c(cc3[nH]2)OC(F)(F)O4)c1 | ≤ 500 nM
CN(C)c1cc(C(=O)Nc2nc3cc4c(cc3[nH]2)OC(F)(F)O4)ccn1 | 1000 to 15000 nM
CN(C)c1cncc(C(=O)Nc2nc3cc4c(cc3[nH]2)OC(F)(F)O4)c1 | 1000 to 15000 nM
O=C(Nc1nc2cc3c(cc2[nH]1)OC(F)(F)O3)c1csc(-c2ccoc2)n1 [Compound 16B] | 1000 to 15000 nM
O=C(Nc1nc2cc3c(cc2[nH]1)OC(F)(F)O3)c1csc(-c2cccs2)n1 [Compound 11B] | 1000 to 15000 nM
O=C(Nc1nc2cc3c(cc2[nH]1)OC(F)(F)O3)c1csc(-c2ccco2)n1 | 500 to 1000 nM
O=C(Nc1nc2cc3c(cc2[nH]1)OC(F)(F)O3)c1cccc(-n2cnnn2)c1 | 1000 to 15000 nM
COc1cc(C(=O)Nc2nc3cc4c(cc3[nH]2)OC(F)(F)O4)ccc1N | ≤ 500 nM
COc1cccc(CC(=O)Nc2nc3cc4c(cc3[nH]2)OC(F)(F)O4)c1 | 500 to 1000 nM
O=C(Nc1nc2cc3c(cc2[nH]1)OC(F)(F)O3)c1cccc(-c2noc(C3CC3)n2)c1 | 500 to 1000 nM
O=C(Nc1nc2cc3c(cc2[nH]1)OC(F)(F)O3)c1csc(-c2ccc3c(c2)CCO3)n1 | ≤ 500 nM
O=C(Nc1nc2cc3c(cc2[nH]1)OC(F)(F)O3)c1cccc(-c2ncc[nH]2)c1 | 500 to 1000 nM
